- Test system: NCI/ADR-RES ovarian
- assayMethodText: NCI-60 one-dose screen, 48 h (100 = growth as untreated, 0 = no growth, -100 = all killed)
- experimentalContext: 10 µM unless noted
- Procedure: Growth inhibition of the NCI/ADR-RES human […] tumor cell line is measured as a screen for anti-cancer activity. Cells are grown in 96 well plates and exposed to the test compound for 48 hours. Compounds are tested at a single concentration, which is 10^-5 M for most compounds. The reported endpoint is percent growth (GI% or GIPRCNT), where numbers from 0 - 100% represent growth inhibition, and numbers from -100% - 0 represent cell death. For example, a value of 40 represents 60% growth inhibition. […]
About 83,000 compounds went through this panel and 20% of them were active in at least one assay; those are over-represented in the sample as a whole.
I'd be grateful if you could share measured growth for these entries.
Number only, in %; omit the unit.

Ask: Consider the molecule shown here: "Cc1nccc2c3ccc(OCc4cn(-c5ccc(Br)cc5)nn4)cc3n(CC(C)C)c12" What is its recorded growth?
Reply: 32.1

Ask: Entry "C=C(C)[C@@H]1CC[C@]2(C(=O)NCCCO)CC[C@]3(C)[C@H](CC[C@@H]4[C@@]5(C)CCCNC(C)(C)[C@@H]5CC[C@]43C)[C@@H]12" has what growth?
Reply: 82.7

Ask: Entry "CC(=O)O[C@@H]1C[C@]2(C)[C@H]3[C@H](O)C[C@@H]4C5=CC(C)(C)CC[C@]5(C)CC[C@@]4(C)[C@]3(C)CC[C@H]2C(C)(C)[C@H]1O" has what growth?
Reply: 104

Ask: Look at this molecule and give its reported growth. "O=C1Nc2ccc(Cl)cc2/C1=N/c1nc(-c2ccc(F)cc2)cs1"
Reply: 79.8

Ask: Consider the molecule "O=c1[nH]c2ccccc2cc1-c1nc2ccc(Cl)cc2[nH]1" and give its measured growth.
Reply: 74.4

Ask: Quick one: growth for O=C1CC(c2ccc(O)c(O)c2)Oc2cc(O)c([C@@H]3O[C@H](CO)[C@@H](O)[C@H](O)[C@H]3O)c(O)c21 (stereo partly drawn) ?
Reply: 110

Ask: Query: growth; subject: "O=C(CSC(=S)N1CCCCC1)Nc1ccccc1"
Reply: 102

Ask: If you can, please state the reported growth value of "COc1ccc([C@H]2[C@@H](F)C(=O)N2c2cc(OC)c(OC)c(OC)c2)cc1F" .
Reply: 8.4
